System: obese female Zucker rats
Experiment: Oral daily treatment of obese female Zucker rats for fourteen days; serum lipids and glycemic control indicators
Format: in vivo
Settings: Rattus norvegicus, 336 h; percent change from study prebleed; week 2; 100 mg/kg/day oral; read-out: TC
Classification field: satisfied = change in vivo at 100 mg/kg/day at or over 70%; not satisfied = change in vivo at 100 mg/kg/day under 70%.

CC(C)(CCCCOCCCCC(C)(C)CCC(=O)O)CCC(=O)O [Compound 145]; not satisfied
CC(C)(CCCCOCCCCC(C)(C)COC1CCCCO1)COC1CCCCO1 (stereo not shown) [Compound 122]; satisfied
CC(C)(CO)CCCCOCCCCC(C)(CO)c1ccccc1 (stereo not shown) [Compound 129]; not satisfied
CC(C)(CO)CCCCOCCCC(C)(C)CO [Compound 126]; satisfied
CC(CO)(CCCOCCCC(C)(CO)c1ccccc1)c1ccccc1 (stereo not shown) [Compound 110]; not satisfied

Evaluate CC(C)(CO)CCCCCOCCCCCC(C)(C)CO [Compound 131] : change in vivo at 100 mg/kg/day at minimum 70%? satisfied

###

Each entry below carries its reported change in vivo at 30 mg/kg/day.
Test system: obese female Zucker rats
Assay: Oral daily treatment of obese female Zucker rats for fourteen days; serum lipids and glycemic control indicators
Format: in vivo
Conditions: Rattus norvegicus, 168 h; percent change from study prebleed; week 1; 30 mg/kg/day oral; read-out: Glucose
Method: In a number of different experiments, illustrative compounds of the invention are administered daily at a dose of up to 100 mg/kg to chow fed obese female Zucker rats for fourteen days in the morning by oral gavage in 1.5% carboxymethylcellulose/0.2% Tween 20 or 20% ethanol/80% polyethylene glycol (dosing vehicles). Animals are weighed daily. […] Blood glucose is determined after the 6 hour fast in the afternoon without anesthesia from a tail vein. […]

CC(C)(CO)CCCCCOCCCCC(C)(C)CO; 6%
CC(CO)(CCCCOCCCC(C)(CO)c1ccccc1)c1ccccc1 (stereo not shown); 5%
CC(C)(CO)CCCOCCOCCCC(C)(C)CO; -20%

Provide the documented change in vivo at 30 mg/kg/day with obese female Zucker rats as the system for CC(C)(CO)CCCCOCCCCC(C)(C)CO 2%

###

Each entry below carries its reported change in vivo at 100 mg/kg/day.
Tested on: obese female Zucker rats
Experiment: Oral daily treatment of obese female Zucker rats for fourteen days; serum lipids and glycemic control indicators
Assay type: in vivo
Details: Rattus norvegicus, 168 h; percent change from study prebleed; week 1; 100 mg/kg/day oral; read-out: Insulin
Report the value in % with no unit label.

Worked examples follow.
CC(C)(CO)CCCCOCCCCC(C)(CO)c1ccccc1 (stereo not shown) [Compound 129]; 2
CC(CO)(CCCOCCCC(C)(CO)c1ccccc1)c1ccccc1 (stereo not shown) [Compound 110]; -2
CC(C)(CO)CCCCOCCCC(C)(C)CO [Compound 126]; 240
CC(C)(CCCCOCCCCC(C)(C)COC1CCCCO1)COC1CCCCO1 (stereo not shown) [Compound 122]; -18
CC(C)(CCCCOCCCCC(C)(C)CCC(=O)O)CCC(=O)O [Compound 145]; -34

Provide the documented change in vivo at 100 mg/kg/day with obese female Zucker rats as the system for CC(C)(CO)CCCC1CCCC(CCCC(C)(C)CO)O1 (stereo not shown) [Compound 141] -2

Same thing, different molecule: CC(C)(CO)CCCCCOCCCCCC(C)(C)CO [Compound 131] 40

###

Each entry below carries its reported change in vivo at 30 mg/kg/day.
Tested on: obese female Zucker rats
Assay: Oral daily treatment of obese female Zucker rats for fourteen days; serum lipids and glycemic control indicators
Assay type: in vivo
Conditions: Rattus norvegicus, 168 h; percent change from study prebleed; week 1; 30 mg/kg/day oral; read-out: Insulin
Report the value in % with no unit label.

CC(CO)(CCCCOCCCCC(C)(CO)c1ccccc1)c1ccccc1 (centres unmarked); -37
CC(CO)(CCCCOCCCC(C)(CO)c1ccccc1)c1ccccc1 (centres unmarked); 3
CC(C)(CO)CCCCCOCCCCC(C)(C)CO; 25
CC(C)(CO)CCCCOCCCCC(C)(C)CO; 48

Name the recorded change in vivo at 30 mg/kg/day for CC(C)(CO)CCCOCCOCCCC(C)(C)CO . -40

###

Each entry below carries its reported change in vivo at 30 mg/kg/day.
Test system: obese female Zucker rats
Test: Oral daily treatment of obese female Zucker rats for fourteen days; serum lipids and glycemic control indicators
Format: in vivo
Settings: Rattus norvegicus, 336 h; percent change from study prebleed; week 2; 30 mg/kg/day oral; read-out: TC
Report the value in % with no unit label.

Worked examples follow.
CC(CO)(CCCCOCCCCC(C)(CO)c1ccccc1)c1ccccc1 (centres unmarked); -20
CC(C)(CO)CCCOCCOCCCC(C)(C)CO; -7
CC(C)(CO)CCCCCOCCCCC(C)(C)CO; 77
CC(CO)(CCCCOCCCC(C)(CO)c1ccccc1)c1ccccc1 (centres unmarked); 2

Name the recorded change in vivo at 30 mg/kg/day for CC(C)(CO)CCCCOCCCCC(C)(C)CO . 224

###

Each entry below carries its reported change in vivo at 100 mg/kg/day.
Test system: obese female Zucker rats
Test: Oral daily treatment of obese female Zucker rats for fourteen days; serum lipids and glycemic control indicators
Assay type: in vivo
Conditions: Rattus norvegicus, 168 h; percent change from study prebleed; week 1; 100 mg/kg/day oral; read-out: Glucose

Worked examples follow.
CC(C)(CCCCOCCCCC(C)(C)COC1CCCCO1)COC1CCCCO1 (stereo not shown) [Compound 122]; -7%
CC(C)(CO)CCCCOCCCCC(C)(CO)c1ccccc1 (stereo not shown) [Compound 129]; 14%
CC(C)(CO)CCCCCOCCCCCC(C)(C)CO [Compound 131]; -6%
CC(CO)(CCCOCCCC(C)(CO)c1ccccc1)c1ccccc1 (stereo not shown) [Compound 110]; 12%
CC(C)(CCCCOCCCCC(C)(C)CCC(=O)O)CCC(=O)O [Compound 145]; -1%

Name the recorded change in vivo at 100 mg/kg/day for CC(C)(CO)CCCCOCCCC(C)(C)CO [Compound 126] . 68%

Same thing, different molecule: CC(C)(CO)CCCC1CCCC(CCCC(C)(C)CO)O1 (stereo not shown) [Compound 141] -14%

###

Test system: obese female Zucker rats
Assay: Oral daily treatment of obese female Zucker rats for fourteen days; serum lipids and glycemic control indicators
Format: in vivo
Details: Rattus norvegicus, 336 h; percent change from study prebleed; week 2; 100 mg/kg/day oral; read-out: Insulin
readout: change in vivo at 100 mg/kg/day (%)
Report the value in % with no unit label.

Name the recorded change in vivo at 100 mg/kg/day for CC(C)(CCCCOCCCCC(C)(C)CCC(=O)O)CCC(=O)O . -45

###

Test system: obese female Zucker rats
Assay: Oral daily treatment of obese female Zucker rats for fourteen days; serum lipids and glycemic control indicators
Type: in vivo
Details: Rattus norvegicus, 336 h; percent change from study prebleed; week 2; 100 mg/kg/day oral; read-out: Non-HDL-C
Classification field: 1 = change in vivo at 100 mg/kg/day at or over -30%; -1 = change in vivo at 100 mg/kg/day under -30%.

Evaluate CC(CO)(CCCOCCCC(C)(CO)c1ccccc1)c1ccccc1 (stereo not shown) [Compound 110] : change in vivo at 100 mg/kg/day at minimum -30%? 1

Same thing, different compound: CC(C)(CCCCOCCCCC(C)(C)COC1CCCCO1)COC1CCCCO1 (stereo not shown) [Compound 122] 1

###

Test system: obese female Zucker rats
Experiment: Oral daily treatment of obese female Zucker rats for fourteen days; serum lipids and glycemic control indicators
Assay type: in vivo
Conditions: Rattus norvegicus, 336 h; percent change from study prebleed; week 2; 100 mg/kg/day oral; read-out: Insulin
readout: change in vivo at 100 mg/kg/day
A complete answer gives the number followed by the unit.

Worked examples follow.
CC(C)(CCCCOCCCCC(C)(C)COC1CCCCO1)COC1CCCCO1 (stereo not drawn); -20%
CC(C)(CO)CCCCOCCCC(C)(C)CO; 145%
CC(CO)(CCCOCCCC(C)(CO)c1ccccc1)c1ccccc1 (stereo not drawn); -6%
CC(C)(CO)CCCCCOCCCCCC(C)(C)CO; -1%
CC(C)(CO)CCCC1CCCC(CCCC(C)(C)CO)O1 (stereo not drawn); 10%

// switching to the query compound
Name the recorded change in vivo at 100 mg/kg/day for CC(C)(CO)CCCCOCCCCC(C)(CO)c1ccccc1 (stereo not drawn) . 6%

###

System: obese female Zucker rats
Assay: Oral daily treatment of obese female Zucker rats for fourteen days; serum lipids and glycemic control indicators
Format: in vivo
Conditions: Rattus norvegicus, 336 h; percent change from study prebleed; week 2; 100 mg/kg/day oral; read-out: Non-HDL-C
readout: change in vivo at 100 mg/kg/day (%)
Report the value in % with no unit label.

Name the recorded change in vivo at 100 mg/kg/day for CC(C)(CO)CCCCCOCCCCCC(C)(C)CO . -57

Same thing, different molecule: CC(C)(CCCCOCCCCC(C)(C)CCC(=O)O)CCC(=O)O -30

Same thing, different molecule: CC(C)(CO)CCCCOCCCC(C)(C)CO -17

Same thing, different molecule: CC(C)(CO)CCCC1CCCC(CCCC(C)(C)CO)O1 (centres unmarked) -31

Same thing, different molecule: CC(C)(CO)CCCCOCCCCC(C)(CO)c1ccccc1 (centres unmarked) -13
